Values compiled from ChEMBL document CHEMBL4431376.

test: Protein binding in rat plasma
Type: ADME, cell-free
condition description: read-out: PPB (converted)
quantity: fraction unbound

Record request: fraction unbound value, item CCNC(=O)Nc1ccc(-c2nc(N3CCOC[C@@H]3C)c3c(n2)C(C)(C)S(=O)(=O)C3)cc1
0.31

* * *

test: Distribution coefficient, logD of compound at pH 7.4
Type: physicochemical
condition description: octanol/water
quantity: logD
Lab note: jot the number down without any unit.

Record request: logD value, item CCNC(=O)Nc1ccc(-c2nc(N3CCOC[C@@H]3C)c3c(n2)C(C)(C)S(=O)(=O)C3)cc1
4.31

* * *

test: Mean residence time in Sprague-Dawley rat at 1 mg/kg, iv as bolus dose or 3 mg/kg, po administered through gavage by LC-MS/MS analysis
Type: ADME, organism-based
condition description: in vivo
quantity: MRT (h)
Express the result in h but write the number alone.

Record request: MRT value, item CCNC(=O)Nc1ccc(-c2nc(N3CCOC[C@@H]3C)c3c(n2)C(C)(C)S(=O)(=O)C3)cc1
1.1

* * *

test: Cmax in DBA/1 OlaHsd mouse immunized with bovine type2 collagen in Freund's complete adjuvant at 10 mg/kg, po bid administered starting on day 22 post immunization measured on day 31 post immunization
Format: ADME, organism-based
Design: dose 10 mg/kg, route oral
condition description: in vivo
quantity: Cmax (nM)
Express the result in nM but write the number alone.

Record request: Cmax value, item CCNC(=O)Nc1ccc(-c2nc(N3CCOC[C@@H]3C)c3c(n2)C(C)(C)S(=O)(=O)C3)cc1
1700

* * *

test: Oral bioavailability in Sprague-Dawley rat at 3 mg/kg administered through gavage measured up to 8 hrs by LC-MS/MS analysis
Assay type: ADME, organism-based
condition description: in vivo
quantity: bioavailability (%)
Express the result in % but write the number alone.

Record request: bioavailability value, item CCNC(=O)Nc1ccc(-c2nc(N3CCOC[C@@H]3C)c3c(n2)C(C)(C)S(=O)(=O)C3)cc1
44

* * *

test: Volume of distribution at steady state in Sprague-Dawley rat at 1 mg/kg, iv as bolus dose or 3 mg/kg, po administered through gavage measured up to 8 hrs by LC-MS/MS analysis
Type: ADME, organism-based
condition description: in vivo, read-out: Vdss
quantity: Vd (L/kg)
Express the result in L/kg but write the number alone.

Record request: Vd value, item CCNC(=O)Nc1ccc(-c2nc(N3CCOC[C@@H]3C)c3c(n2)C(C)(C)S(=O)(=O)C3)cc1
3.1

* * *

measurement target: Voltage-gated inwardly rectifying potassium channel KCNH2 (Homo sapiens, UniProt Q12809)
Sequence (Q12809 whole entry): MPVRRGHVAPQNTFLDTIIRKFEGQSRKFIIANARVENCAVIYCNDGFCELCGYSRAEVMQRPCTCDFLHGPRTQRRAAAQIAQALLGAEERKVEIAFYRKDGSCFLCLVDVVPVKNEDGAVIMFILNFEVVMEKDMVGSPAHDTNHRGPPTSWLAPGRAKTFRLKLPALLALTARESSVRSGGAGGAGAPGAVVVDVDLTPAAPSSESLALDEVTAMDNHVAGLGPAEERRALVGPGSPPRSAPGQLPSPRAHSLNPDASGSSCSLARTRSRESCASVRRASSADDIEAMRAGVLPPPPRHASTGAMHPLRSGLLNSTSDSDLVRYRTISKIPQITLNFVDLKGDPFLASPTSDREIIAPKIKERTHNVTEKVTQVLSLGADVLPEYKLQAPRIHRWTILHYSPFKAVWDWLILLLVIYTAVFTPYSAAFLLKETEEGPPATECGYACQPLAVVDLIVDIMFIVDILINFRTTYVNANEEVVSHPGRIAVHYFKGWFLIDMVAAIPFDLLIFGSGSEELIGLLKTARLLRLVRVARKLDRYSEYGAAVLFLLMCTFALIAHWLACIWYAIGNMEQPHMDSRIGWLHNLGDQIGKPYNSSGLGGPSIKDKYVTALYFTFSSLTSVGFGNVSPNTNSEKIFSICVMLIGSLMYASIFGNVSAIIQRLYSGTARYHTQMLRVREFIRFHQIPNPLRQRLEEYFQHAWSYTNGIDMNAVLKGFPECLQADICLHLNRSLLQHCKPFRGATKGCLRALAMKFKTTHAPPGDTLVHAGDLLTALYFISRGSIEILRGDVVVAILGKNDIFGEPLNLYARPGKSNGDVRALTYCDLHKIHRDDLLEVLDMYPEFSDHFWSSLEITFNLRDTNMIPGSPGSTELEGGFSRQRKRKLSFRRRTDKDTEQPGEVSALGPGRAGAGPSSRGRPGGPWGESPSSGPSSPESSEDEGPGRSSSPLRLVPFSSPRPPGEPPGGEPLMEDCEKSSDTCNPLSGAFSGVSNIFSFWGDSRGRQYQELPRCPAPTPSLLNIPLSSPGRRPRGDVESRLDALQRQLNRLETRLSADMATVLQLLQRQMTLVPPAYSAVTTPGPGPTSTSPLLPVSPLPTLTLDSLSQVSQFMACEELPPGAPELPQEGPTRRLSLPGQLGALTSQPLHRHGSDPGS
test: Inhibition of human ERG expressed in HEK293 cells by whole cell patch clamp assay
quantity: IC50

Record request: IC50 value, item CCNC(=O)Nc1ccc(-c2nc(N3CCOC[C@@H]3C)c3c(n2)C(C)(C)S(=O)(=O)C3)cc1
48 µM

* * *

test: Solubility of compound in fed state simulated intestinal fluid
Format: physicochemical
quantity: solubility (µg/mL)
Express the result in µg/mL but write the number alone.

Record request: solubility value, item CCNC(=O)Nc1ccc(-c2nc(N3CCOC[C@@H]3C)c3c(n2)C(C)(C)S(=O)(=O)C3)cc1
60.1

* * *

test: AUC in DBA/1 OlaHsd mouse immunized with bovine type2 collagen in Freund's complete adjuvant at 10 mg/kg, po bid administered starting on day 22 post immunization measured on day 31 post immunization
Assay type: ADME, organism-based
condition description: in vivo
quantity: AUC (µM·h)
Express the result in µM·h but write the number alone.

Record request: AUC value, item CCNC(=O)Nc1ccc(-c2nc(N3CCOC[C@@H]3C)c3c(n2)C(C)(C)S(=O)(=O)C3)cc1
14
